The measurements presented in this section are drawn from PubChem BioAssay AID2060508.

- Tested on: 454973-116-R2-J3-PDC spheroids, viability, % test/control;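 note: spheroids exposed to compounds for seven days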
- protocolSummary: Anticancer human tumor 454973-116-R2-J3-PDC patient-derived pancreatic carcinoma cell line growth inhibition [GQUAD]; active = viability on the fitted dose curve at most 10% of control; inactive = the rest
- appliedConditions: second compound 1 µM; first compound 1 µM; spheroids with HUVEC and MSC
Classes used: true (active), false (inactive)

compound	measurementTarget	class
CC(=O)O[C@H]1C(=O)[C@@]2(C)[C@H]([C@H](OC(=O)c3ccccc3)[C@]3(O)C[C@H](OC(=O)[C@H](O)[C@@H](NC(=O)c4ccccc4)c4ccccc4)C(C)=C1C3(C)C)[C@]1(OC(C)=O)CO[C@@H]1C[C@@H]2O + Cc1[nH]c2ccc(F)cc2c1-c1nc2c3cccnc3c3ncccc3c2[nH]1	454973-116-R2-J3-PDC spheroids, viability, % test/control	true
COc1ncnc(C2CC2)c1-c1ncc2cnn(Cc3ccc(-c4nc(C(F)(F)F)cn4C(C)C)cc3)c2n1 + Cc1cnc(CNC(=O)c2c(=O)c3ccc(N4CCCN(C)CC4)nc3n3c2sc2ccccc23)cn1	454973-116-R2-J3-PDC spheroids, viability, % test/control	false
COc1ncnc(C2CC2)c1-c1ncc2cnn(Cc3ccc(-c4nc(C(F)(F)F)cn4C(C)C)cc3)c2n1 + CN(C)c1ccc(Nc2c3ccc(NC(=O)CCN4CCCC4)cc3nc3cc(NC(=O)CCN4CCCC4)ccc23)cc1	454973-116-R2-J3-PDC spheroids, viability, % test/control	false
CC(=O)O[C@H]1C(=O)[C@@]2(C)[C@H]([C@H](OC(=O)c3ccccc3)[C@]3(O)C[C@H](OC(=O)[C@H](O)[C@@H](NC(=O)c4ccccc4)c4ccccc4)C(C)=C1C3(C)C)[C@]1(OC(C)=O)CO[C@@H]1C[C@@H]2O + Cc1cnc(CNC(=O)c2c(=O)c3ccc(N4CCCN(C)CC4)nc3n3c2sc2ccccc23)cn1	454973-116-R2-J3-PDC spheroids, viability, % test/control	false
O=C(NO)c1cnc(N2CCN(S(=O)(=O)c3ccc4ccccc4c3)CC2)nc1 + Cc1cnc(CNC(=O)c2c(=O)c3ccc(N4CCCN(C)CC4)nc3n3c2sc2ccccc23)cn1	454973-116-R2-J3-PDC spheroids, viability, % test/control	true
CC1COCCN1c1cc(C2(S(C)(=N)=O)CC2)nc(-c2ccnc3[nH]ccc23)n1 (stereo not drawn) + Cc1cnc(CNC(=O)c2c(=O)c3ccc(N4CCCN(C)CC4)nc3n3c2sc2ccccc23)cn1	454973-116-R2-J3-PDC spheroids, viability, % test/control	false
CC(C)n1c(=O)n(C)c2cnc3cc(F)c(-c4ccc(OCCCN5CCCCC5)nc4)cc3c21 + CN(C)c1ccc(Nc2c3ccc(NC(=O)CCN4CCCC4)cc3nc3cc(NC(=O)CCN4CCCC4)ccc23)cc1	454973-116-R2-J3-PDC spheroids, viability, % test/control	false
COc1ccc([C@@H](O)c2cc(-c3ncnc4cc(N5CCOCC5)ccc34)c(F)cc2Cl)nn1 + Cc1cnc(CNC(=O)c2c(=O)c3ccc(N4CCCN(C)CC4)nc3n3c2sc2ccccc23)cn1	454973-116-R2-J3-PDC spheroids, viability, % test/control	false
O=C(c1cc(Cc2n[nH]c(=O)c3ccccc23)ccc1F)N1CCN(C(=O)C2CC2)CC1 + Cc1cnc(CNC(=O)c2c(=O)c3ccc(N4CCCN(C)CC4)nc3n3c2sc2ccccc23)cn1	454973-116-R2-J3-PDC spheroids, viability, % test/control	false
COc1cccc2c1C(=O)c1c(O)c3c(c(O)c1C2=O)CC(O)(C(=O)CO)CC3OC1CC(N)C(O)C(C)O1 (stereo not drawn) + CN(C)c1ccc(Nc2c3ccc(NC(=O)CCN4CCCC4)cc3nc3cc(NC(=O)CCN4CCCC4)ccc23)cc1	454973-116-R2-J3-PDC spheroids, viability, % test/control	false
C#Cc1c(F)ccc2cc(O)cc(-c3ncc4c(N5CC6CCC(C5)N6)nc(OCC56CCCN5CC(F)C6)nc4c3F)c12 (stereo not drawn) + CN(C)c1ccc(Nc2c3ccc(NC(=O)CCN4CCCC4)cc3nc3cc(NC(=O)CCN4CCCC4)ccc23)cc1	454973-116-R2-J3-PDC spheroids, viability, % test/control	false
COc1cccc2c1C(=O)c1c(O)c3c(c(O)c1C2=O)CC(O)(C(=O)CO)CC3OC1CC(N)C(O)C(C)O1 (stereo not drawn) + Cc1[nH]c2ccc(F)cc2c1-c1nc2c3cccnc3c3ncccc3c2[nH]1	454973-116-R2-J3-PDC spheroids, viability, % test/control	false
C=CCn1c(=O)c2cnc(Nc3ccc(N4CCN(C)CC4)cc3)nc2n1-c1cccc(C(C)(C)O)n1 + Cc1[nH]c2ccc(F)cc2c1-c1nc2c3cccnc3c3ncccc3c2[nH]1	454973-116-R2-J3-PDC spheroids, viability, % test/control	false
CC(=O)O[C@H]1C(=O)[C@@]2(C)[C@H]([C@H](OC(=O)c3ccccc3)[C@]3(O)C[C@H](OC(=O)[C@H](O)[C@@H](NC(=O)c4ccccc4)c4ccccc4)C(C)=C1C3(C)C)[C@]1(OC(C)=O)CO[C@@H]1C[C@@H]2O + CN(C)c1ccc(Nc2c3ccc(NC(=O)CCN4CCCC4)cc3nc3cc(NC(=O)CCN4CCCC4)ccc23)cc1	454973-116-R2-J3-PDC spheroids, viability, % test/control	true
C#Cc1c(F)ccc2cc(O)cc(-c3ncc4c(N5CC6CCC(C5)N6)nc(OCC56CCCN5CC(F)C6)nc4c3F)c12 (stereo not drawn) + Cc1[nH]c2ccc(F)cc2c1-c1nc2c3cccnc3c3ncccc3c2[nH]1	454973-116-R2-J3-PDC spheroids, viability, % test/control	false
CC1COCCN1c1cc(-c2ccnn2C)c2ccnc(-c3ccn[nH]3)c2n1 (stereo not drawn) + CN(C)c1ccc(Nc2c3ccc(NC(=O)CCN4CCCC4)cc3nc3cc(NC(=O)CCN4CCCC4)ccc23)cc1	454973-116-R2-J3-PDC spheroids, viability, % test/control	false
COc1ccc([C@@H](O)c2cc(-c3ncnc4cc(N5CCOCC5)ccc34)c(F)cc2Cl)nn1 + Cc1[nH]c2ccc(F)cc2c1-c1nc2c3cccnc3c3ncccc3c2[nH]1	454973-116-R2-J3-PDC spheroids, viability, % test/control	false
C=CC(=O)N1CCN(c2nc(=O)n(-c3c(C)ccnc3C(C)C)c3nc(-c4c(O)cccc4F)c(F)cc23)C(C)C1 (stereo not drawn) + CN(C)c1ccc(Nc2c3ccc(NC(=O)CCN4CCCC4)cc3nc3cc(NC(=O)CCN4CCCC4)ccc23)cc1	454973-116-R2-J3-PDC spheroids, viability, % test/control	false
